- Assay explanation: AUC (0 to t) in Balb/c mouse at 10 mg/kg, ip measured upto 24 hrs by LC-MS/MS analysis
- Type: ADME, organism-based
- Parameters: time < 24 hrs, dose 10 mg/kg, route ip
- Experimental parameters: in vivo
Assay endpoint: AUC(0-t) at 24 h (ng·h/mL)

(I) CN(CCCCCC(=O)Nc1ccc2c(c1)C(=O)N(C1CCC(=O)NC1=O)C2=O)CC[C@@H](c1ccccc1)n1cc(NC(=O)c2n[nH]c3c2CCC(C)(C)C3)cn1.O=C(O)C(F)(F)F (some centres not stated)
(II) CC1(C)CCc2c(C(=O)Nc3cnn([C@@H](CCN4CCN(CCC5CCN(c6ccc7c(c6)C(=O)N(C6CCC(=O)NC6=O)C7=O)CC5)CC4)c4ccccc4)c3)n[nH]c2C1.O=C(O)C(F)(F)F (some centres not stated)
Task item: Task for the reader: decide whether I or II has the larger AUC(0-t) at 24 h. Let me know the label of the one you choose.
Reply: II

----------
- Assay explanation: MRT last in Balb/c mouse at 5 mg/kg, iv measured upto 24 hrs by LC-MS/MS analysis
- Format: ADME, organism-based
- Experimental parameters: Balb/c, in vivo
Assay endpoint: MRT last at 24 h (h)
All answers are understood in h, so give the number only.

Task item: Which value of MRT last at 24 h has been reported for CC1(C)CCc2c(C(=O)Nc3cnn([C@@H](CCN4CCN(CCC5CCN(c6ccc7c(c6)C(=O)N(C6CCC(=O)NC6=O)C7=O)CC5)CC4)c4ccccc4)c3)n[nH]c2C1.O=C(O)C(F)(F)F (stereo partly specified) in the records?
Reply: 4.42

----------
- Assay explanation: MRT last in Balb/c mouse at 10 mg/kg, ip measured upto 24 hrs by LC-MS/MS analysis
- Type: ADME, organism-based
- Experimental parameters: in vivo
Assay endpoint: MRT last at 24 h (h)

(I) CC1(C)CCc2c(C(=O)Nc3cnn([C@@H](CCN4CCN(CCC5CCN(c6ccc7c(c6)C(=O)N(C6CCC(=O)NC6=O)C7=O)CC5)CC4)c4ccccc4)c3)n[nH]c2C1.O=C(O)C(F)(F)F (some centres not stated)
(II) CN(CCCCCC(=O)Nc1ccc2c(c1)C(=O)N(C1CCC(=O)NC1=O)C2=O)CC[C@@H](c1ccccc1)n1cc(NC(=O)c2n[nH]c3c2CCC(C)(C)C3)cn1.O=C(O)C(F)(F)F (some centres not stated)
Task item: Looking at recorded values for MRT last at 24 h, does I or II come in lower? Let me know the label of the one you choose.
Reply: II

----------
- Assay explanation: Half life in Balb/c mouse at 10 mg/kg, ip measured upto 24 hrs by LC-MS/MS analysis
- Type: ADME, organism-based
- Experimental parameters: in vivo
Assay endpoint: half-life (h)

(P) CN(CCCCCC(=O)Nc1ccc2c(c1)C(=O)N(C1CCC(=O)NC1=O)C2=O)CC[C@@H](c1ccccc1)n1cc(NC(=O)c2n[nH]c3c2CCC(C)(C)C3)cn1.O=C(O)C(F)(F)F (some centres not stated)
(Q) CC1(C)CCc2c(C(=O)Nc3cnn([C@@H](CCN4CCN(CCC5CCN(c6ccc7c(c6)C(=O)N(C6CCC(=O)NC6=O)C7=O)CC5)CC4)c4ccccc4)c3)n[nH]c2C1.O=C(O)C(F)(F)F (some centres not stated)
Task item: Looking at recorded values for half-life, does P or Q come in lower? Let me know the label of the one you choose.
Reply: P

----------
- Assay explanation: Bioavailability in Balb/c mouse at 10 mg/kg, ip measured upto 24 hrs by LC-MS/MS analysis
- Assay type: ADME, organism-based
- Experimental parameters: in vivo
Assay endpoint: bioavailability (%)

CN(CCCCCC(=O)Nc1ccc2c(c1)C(=O)N(C1CCC(=O)NC1=O)C2=O)CC[C@@H](c1ccccc1)n1cc(NC(=O)c2n[nH]c3c2CCC(C)(C)C3)cn1.O=C(O)C(F)(F)F (some centres not stated): 73.5
CC1(C)CCc2c(C(=O)Nc3cnn([C@@H](CCN4CCN(CCC5CCN(c6ccc7c(c6)C(=O)N(C6CCC(=O)NC6=O)C7=O)CC5)CC4)c4ccccc4)c3)n[nH]c2C1.O=C(O)C(F)(F)F (some centres not stated): 88.4

----------
- Assay explanation: Half life in Balb/c mouse at 5 mg/kg, iv measured upto 24 hrs by LC-MS/MS analysis
- Assay type: ADME, organism-based
- Experimental parameters: in vivo
Assay endpoint: half-life (h)

(1) CC1(C)CCc2c(C(=O)Nc3cnn([C@@H](CCN4CCN(CCC5CCN(c6ccc7c(c6)C(=O)N(C6CCC(=O)NC6=O)C7=O)CC5)CC4)c4ccccc4)c3)n[nH]c2C1.O=C(O)C(F)(F)F (some centres not stated)
(2) CN(CCCCCC(=O)Nc1ccc2c(c1)C(=O)N(C1CCC(=O)NC1=O)C2=O)CC[C@@H](c1ccccc1)n1cc(NC(=O)c2n[nH]c3c2CCC(C)(C)C3)cn1.O=C(O)C(F)(F)F (some centres not stated)
Task item: Looking at recorded values for half-life, does 1 or 2 come in lower? Let me know the label of the one you choose.
Reply: 2
(2: 1.88 h, 1: 4.39 h)

----------
- Subject of test: Interleukin-2 (Homo sapiens, UniProt P60568)
- Sequence (P60568 whole entry): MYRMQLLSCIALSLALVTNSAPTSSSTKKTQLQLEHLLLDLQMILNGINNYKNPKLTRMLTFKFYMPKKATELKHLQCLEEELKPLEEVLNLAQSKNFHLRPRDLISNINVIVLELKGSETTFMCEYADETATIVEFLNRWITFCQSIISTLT
- Assay explanation: Inhibition of IL-2 in human Jurkat T cells pretreated with compound for 16 hrs followed by anti-CD3 stimulation by ELISA analysis
- Assay type: cell-based
Assay endpoint: EC50 (nM)
All answers are understood in nM, so give the number only.

Task item: Which value of EC50 has been reported for COc1cc(C)c(Sc2cnc(NC(=O)c3ccc(CNC(C)C(C)(C)C)cc3)s2)cc1C(=O)N1CCN(C(C)=O)CC1 (stereo unspecified) in the records?
Reply: 238

----------
- Assay explanation: AUC (0 to t) in Balb/c mouse at 5 mg/kg, iv measured upto 24 hrs by LC-MS/MS analysis
- Assay type: ADME, organism-based
- Parameters: dose 5 mg/kg, time < 24 hrs, route iv
- Experimental parameters: in vivo
Assay endpoint: AUC(0-t) at 24 h (ng·h/mL)

(I) CC1(C)CCc2c(C(=O)Nc3cnn([C@@H](CCN4CCN(CCC5CCN(c6ccc7c(c6)C(=O)N(C6CCC(=O)NC6=O)C7=O)CC5)CC4)c4ccccc4)c3)n[nH]c2C1.O=C(O)C(F)(F)F (some centres not stated)
(II) CN(CCCCCC(=O)Nc1ccc2c(c1)C(=O)N(C1CCC(=O)NC1=O)C2=O)CC[C@@H](c1ccccc1)n1cc(NC(=O)c2n[nH]c3c2CCC(C)(C)C3)cn1.O=C(O)C(F)(F)F (some centres not stated)
Task item: Task for the reader: decide whether I or II has the larger AUC(0-t) at 24 h. Let me know the label of the one you choose.
Reply: I
